Each entry below lists one item and its recorded IC50 value.
Sequence of the target: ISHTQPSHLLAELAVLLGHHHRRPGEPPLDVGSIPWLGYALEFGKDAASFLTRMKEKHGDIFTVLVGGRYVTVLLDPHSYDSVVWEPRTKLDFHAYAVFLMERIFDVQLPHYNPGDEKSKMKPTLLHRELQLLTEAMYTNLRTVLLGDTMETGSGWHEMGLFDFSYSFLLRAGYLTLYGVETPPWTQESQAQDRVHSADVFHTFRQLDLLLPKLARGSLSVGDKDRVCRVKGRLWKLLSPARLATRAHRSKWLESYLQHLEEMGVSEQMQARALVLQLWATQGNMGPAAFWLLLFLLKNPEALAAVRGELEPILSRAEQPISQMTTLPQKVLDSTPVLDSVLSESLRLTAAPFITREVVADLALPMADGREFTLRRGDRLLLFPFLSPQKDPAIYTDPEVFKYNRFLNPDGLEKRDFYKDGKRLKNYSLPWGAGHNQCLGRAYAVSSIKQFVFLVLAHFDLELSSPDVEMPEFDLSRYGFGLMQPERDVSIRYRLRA

(Q) Could you share which IC50 value was measured for Cn1cc(Cn2ccnc2)c2ccccc21 ?
(A) > 100 µM

(Q) Proceed to COc1ccc(C(=O)n2cc(Cn3ccnc3)c3ccccc32)cc1
(A) > 100 µM

(Q) Proceed to CN(C)CCn1cc(Cn2ccnc2)c2ccccc21
(A) > 100 µM

* * *

target: thromboxane synthetase (Homo sapiens); construct: Indomethacin-pretreated human platelet microsomes; from tissue; host or cells: human platelet microsomes; assay: Thromboxane A2 (TxA2) synthetase in vitro enzyme assay; type: biochemical; details: prostacyclin synthetase / thromboxane synthetase 50% inhibition concentrations
measureName: Ratio of (3) to (1)

(Q) Kindly state the measured Ratio of (3) to (1) obtained for COc1ccc2[nH]cc(Cn3ccnc3)c2c1 [IV, 3-(imidazol-1-ylmethyl)-5-methoxyindole] with thromboxane synthetase (Homo sapiens).
(A) 500

(Q) Proceed to Cc1ccc2[nH]cc(Cn3ccnc3)c2c1 [XI, 3-(imidazol-1-ylmethyl)-5-methylindole]
(A) 600

[a] Oc1ccc(-c2[nH]c3ccccc3c2Cn2ccnc2)cc1 [L]
[b] Cl.c1ccc(Cn2cc(Cn3ccnc3)c3ccccc32)cc1 [Example XXVI]
[c] COc1ccc2[nH]c(C)c(Cn3ccnc3)c2c1 [Example V]
[d] C=C(C)Cn1cc(Cn2ccnc2)c2ccccc21 [XXXV]
[e] O=C(c1ccccc1)n1cc(Cn2ccnc2)c2ccccc21 [Example XL, 1-benzoyl-3-(imidazol-1-ylmethyl)indole]
(Q) Arrange the 5 compounds by rising Ratio of (3) to (1), starting with the smallest. When ranking, write the labels in the order the request describes.
(A) b, c, d, a, e

* * *

target: thromboxane synthetase (Homo sapiens, UniProt P24557); construct: Indomethacin-pretreated human platelet microsomes; from tissue; host or cells: human platelet microsomes; experiment: Thromboxane A2 (TxA2) synthetase in vitro enzyme assay; assay type: biochemical; conditions: prostacyclin synthetase / thromboxane synthetase 50% inhibition concentrations
Sequence (P24557 whole entry): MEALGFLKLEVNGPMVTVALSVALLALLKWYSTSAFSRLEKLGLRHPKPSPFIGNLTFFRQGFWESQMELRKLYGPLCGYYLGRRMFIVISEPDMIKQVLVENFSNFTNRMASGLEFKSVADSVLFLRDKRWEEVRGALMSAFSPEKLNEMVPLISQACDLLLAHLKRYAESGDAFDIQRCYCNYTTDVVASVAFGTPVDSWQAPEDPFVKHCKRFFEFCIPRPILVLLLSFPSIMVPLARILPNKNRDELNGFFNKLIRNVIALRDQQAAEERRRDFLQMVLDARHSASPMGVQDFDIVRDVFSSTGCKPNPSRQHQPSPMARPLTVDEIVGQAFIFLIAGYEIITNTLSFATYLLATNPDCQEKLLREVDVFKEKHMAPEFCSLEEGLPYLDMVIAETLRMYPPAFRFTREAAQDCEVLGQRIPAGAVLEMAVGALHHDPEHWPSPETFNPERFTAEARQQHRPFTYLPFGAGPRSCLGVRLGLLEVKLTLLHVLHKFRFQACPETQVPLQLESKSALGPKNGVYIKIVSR
Each entry below lists one item and its recorded Ratio of (3) to (1) value.

Study these solved cases before continuing.
(Q) Could you share which Ratio of (3) to (1) value was measured for C=CCn1cc(Cn2ccnc2)c2ccccc21 [XXXI, 1-allyl-3-(imidazol-1-ylmethyl)indole] ?
(A) > 1.7×10^6

(Q) Proceed to Clc1ccccc1-c1[nH]c2ccccc2c1Cn1ccnc1 [Example XX]
(A) 13,000

(Q) Proceed to Clc1ccc(-c2[nH]c3ccccc3c2Cn2ccnc2)cc1 [XXI]
(A) > 900

(Q) Proceed to CCCn1cc(Cn2ccnc2)c2ccccc21 [XXX]
(A) > 2,500

(Q) Proceed to c1ccc2c(Cn3ccnc3)c(C3CCCCC3)[nH]c2c1 [XII]
(A) 70,000

(Q) Proceed to COCCn1cc(Cn2ccnc2)c2ccccc21 [XXXVII]
(A) > 2,200

Others:
(Q) Could you share which Ratio of (3) to (1) value was measured for c1ccc(Cc2[nH]c3ccccc3c2Cn2ccnc2)cc1 [XXII, 2-benzyl-3-(imidazol-1-ylmethyl)indole] ?
(A) > 10^5

(Q) Proceed to c1ccc2c(Cn3ccnc3)c[nH]c2c1 [*, 3-(imidazol-1-ylmethyl)-indole]
(A) 22,000

(Q) Proceed to Cc1ccc(C(=O)n2cc(Cn3ccnc3)c3ccccc32)cc1 [XLII]
(A) 49,000

(Q) Proceed to COc1ccccc1-c1[nH]c2ccccc2c1Cn1ccnc1 [XVIII]
(A) 3,700
